- measured-on: TLR2 (Homo sapiens, UniProt O60603)
- Sequence (O60603 21-784): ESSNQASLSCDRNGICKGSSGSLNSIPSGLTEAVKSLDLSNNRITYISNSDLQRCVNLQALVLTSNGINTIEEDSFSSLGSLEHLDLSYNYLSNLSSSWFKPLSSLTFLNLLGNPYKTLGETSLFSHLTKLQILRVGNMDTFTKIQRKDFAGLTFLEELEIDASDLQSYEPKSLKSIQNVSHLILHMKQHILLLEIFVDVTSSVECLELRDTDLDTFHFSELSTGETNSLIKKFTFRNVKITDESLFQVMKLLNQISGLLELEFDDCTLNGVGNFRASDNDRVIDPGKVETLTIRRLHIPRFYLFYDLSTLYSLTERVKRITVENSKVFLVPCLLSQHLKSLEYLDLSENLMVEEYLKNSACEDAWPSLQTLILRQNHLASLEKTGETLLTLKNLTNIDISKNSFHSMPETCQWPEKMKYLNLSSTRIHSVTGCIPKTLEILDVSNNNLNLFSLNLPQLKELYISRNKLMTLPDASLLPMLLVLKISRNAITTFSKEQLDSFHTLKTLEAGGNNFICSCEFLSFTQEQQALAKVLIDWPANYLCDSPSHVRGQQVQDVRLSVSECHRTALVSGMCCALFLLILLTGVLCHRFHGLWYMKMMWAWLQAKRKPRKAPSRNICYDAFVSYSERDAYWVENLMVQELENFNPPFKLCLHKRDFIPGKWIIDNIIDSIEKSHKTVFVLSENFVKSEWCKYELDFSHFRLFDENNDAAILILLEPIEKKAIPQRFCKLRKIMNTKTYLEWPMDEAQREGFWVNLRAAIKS
- experimental-protocol: TLR2 agonist screening assay, HEK-Blue TLR2 reporter cell line (NF-kB-driven SEAP, absorbance at 600 nm)
- Type: cell-based
- Parameters: host or cells: HEK-293 (HEK-Blue TLR2 reporter cell line)
- conditions-used: HEK-Blue TLR2 reporter cells, agonist mode; average of all runs (Table 4)
Quick reference for EC50 among some compounds
value-kind: EC50

- CCCCCCCC(=O)N1CCN(S(=O)(=O)c2ccc(C(=O)N3C[C@@H](C(=O)N[C@H]4C[C@@H]4c4ccccc4)[C@H](C(=O)N[C@H]4C[C@@H]4c4ccccc4)C3)cc2)C[C@H]1C(=O)NCCCCCC: > 1 µM
- CCCCCCCCCCCCCCCN1CCCC(NC(=O)c2ccc(C(=O)N3C[C@@H](C(=O)N[C@H]4C[C@@H]4c4ccccc4)[C@H](C(=O)N[C@H]4C[C@@H]4c4ccccc4)C3)cc2)C1=O (stereo partly drawn): 0.0001 to 0.05 µM
- CCCCCCCNC(=O)N[C@@H](Cn1cc(-c2ccc(C(=O)N3C[C@@H](C(=O)N[C@H]4C[C@@H]4c4ccccc4)[C@H](C(=O)N[C@H]4C[C@@H]4c4ccccc4)C3)cc2)nn1)C(=O)NCCCCCC: 0.0001 to 0.05 µM
- CCCCCCCCCCCCNC(=O)N[C@H]1CN(C(c2ccc(C(=O)N3C[C@@H](C(=O)N[C@H]4C[C@@H]4c4ccccc4)[C@H](C(=O)N[C@H]4C[C@@H]4c4ccccc4)C3)cc2)C(F)(F)F)C[C@@H]1OC (single isomer, unassigned) [Compound 232]: 0.0001 to 0.05 µM
- CCCCCCCO[C@H]1CN(C(=O)c2ccc(C(=O)N3C[C@@H](C(=O)N[C@H]4C[C@@H]4c4ccccc4)[C@H](C(=O)N[C@H]4C[C@@H]4c4ccccc4)C3)cc2)C[C@H]1C(=O)NCCCCCC (single isomer, unassigned): > 1 µM
- CCCCCCNC(=O)[C@H](CNC(=O)c1ccc(C(=O)N2C[C@@H](C(=O)N[C@H]3C[C@@H]3c3ccccc3)[C@H](C(=O)N[C@H]3C[C@@H]3c3ccccc3)C2)cc1)NC(=O)CCCC: 0.351 to 1 µM
- CCCCCCCCCC(=O)N[C@@H](CNC(=O)Nc1ccc(C(=O)N2C[C@@H](C(=O)N[C@H]3C[C@@H]3c3ccccc3)[C@H](C(=O)N[C@H]3C[C@@H]3c3ccccc3)C2)cc1)C(=O)NCCCCCC: > 1 µM
- CCCCCCCC(=O)N[C@@H](Cn1cc(-c2ccc(C(=O)N3C[C@@H](C(=O)N[C@H]4C[C@@H]4c4ccccc4)[C@H](C(=O)N[C@H]4C[C@@H]4c4ccccc4)C3)cc2)nn1)C(=O)NCCCCCC: 0.0001 to 0.05 µM
- CCCCCCCCCCCCCCC(=O)N[C@@H]1CCN(Cc2ccc(C(=O)N3C[C@@H](C(=O)N[C@H]4C[C@@H]4c4ccccc4)[C@H](C(=O)N[C@H]4C[C@@H]4c4ccccc4)C3)cc2)C1=O: > 1 µM

* * *

Quick reference for EC50 among some molecules
- measured-on: TLR2 (Mus musculus)
- Construct: endogenous in cells
- Sequence (Q9QUN7 25-784): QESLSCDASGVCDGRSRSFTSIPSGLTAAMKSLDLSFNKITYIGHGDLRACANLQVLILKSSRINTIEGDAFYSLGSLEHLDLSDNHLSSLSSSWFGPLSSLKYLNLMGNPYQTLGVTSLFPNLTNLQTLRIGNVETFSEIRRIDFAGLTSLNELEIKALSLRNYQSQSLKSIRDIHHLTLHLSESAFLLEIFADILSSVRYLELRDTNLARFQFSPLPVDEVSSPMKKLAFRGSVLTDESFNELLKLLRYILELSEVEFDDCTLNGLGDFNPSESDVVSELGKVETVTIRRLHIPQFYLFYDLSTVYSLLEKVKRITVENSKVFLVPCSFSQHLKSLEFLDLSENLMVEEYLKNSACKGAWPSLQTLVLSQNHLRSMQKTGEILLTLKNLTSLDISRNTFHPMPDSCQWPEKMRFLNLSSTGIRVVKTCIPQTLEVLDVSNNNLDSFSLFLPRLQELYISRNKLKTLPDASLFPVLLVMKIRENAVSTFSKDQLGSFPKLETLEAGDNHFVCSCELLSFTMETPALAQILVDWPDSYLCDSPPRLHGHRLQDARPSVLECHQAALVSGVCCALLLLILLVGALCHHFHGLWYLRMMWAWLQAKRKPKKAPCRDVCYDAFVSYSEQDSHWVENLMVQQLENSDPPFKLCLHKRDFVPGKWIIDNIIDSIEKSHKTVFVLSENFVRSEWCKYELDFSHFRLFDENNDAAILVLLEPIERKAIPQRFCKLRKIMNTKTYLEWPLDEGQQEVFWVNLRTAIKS
- experimental-protocol: TLR2 functional assay, cytokine release from RAW 264.7 mouse macrophage cell line
- conditions-used: average of all runs
value-kind: EC50

• CCCCCCCCCCCCCCNC(=O)[C@@H]1CN(C(=O)c2ccc(C(=O)N3C[C@@H](C(=O)N[C@H]4C[C@@H]4c4ccccc4)[C@H](C(=O)N[C@H]4C[C@@H]4c4ccccc4)C3)cc2)C[C@H]1OC = > 1000 nM
• O=C(N[C@@H](CNC(=O)c1ccc(C(=O)N2C[C@@H](C(=O)N[C@H]3C[C@@H]3c3ccccc3)[C@H](C(=O)N[C@H]3C[C@@H]3c3ccccc3)C2)cc1)C(=O)N[C@H]1C[C@@H]1c1ccccc1)N[C@H]1C[C@@H]1c1ccccc1 = 351 to 1000 nM
• CCCCCCCCOC(=O)N[C@@H](CNC(=O)c1ccc(C(=O)N2C[C@@H](C(=O)N[C@H]3C[C@@H]3c3ccccc3)[C@H](C(=O)N[C@H]3C[C@@H]3c3ccccc3)C2)cc1)C(=O)NCCCCCC = > 1000 nM
• CCCCCCCCCCCNC(=O)N[C@H]1CN(C(c2ccc(C(=O)N3C[C@@H](C(=O)N[C@H]4C[C@@H]4c4ccccc4)[C@H](C(=O)N[C@H]4C[C@@H]4c4ccccc4)C3)cc2)C(F)(F)F)C[C@@H]1OC (single isomer, unassigned) [Compound 230] = > 1000 nM

* * *

- measured-on: TLR2 (Homo sapiens)
- experimental-protocol: TLR2 agonist screening assay, HEK-Blue TLR2 reporter cell line (NF-kB-driven SEAP, absorbance at 600 nm)
- Assay type: cell-based
- Design: host or cells: HEK-293 (HEK-Blue TLR2 reporter cell line)
- conditions-used: HEK-Blue TLR2 reporter cells, agonist mode; average of all runs (Table 4)
value-kind: EC50

- CCCCCCCCCCCCCCC(=O)N[C@H]1CN(C(=O)c2ccc(C(=O)N3C[C@@H](C(=O)N[C@H]4C[C@@H]4c4ccccc4)[C@H](C(=O)N[C@H]4C[C@@H]4c4ccccc4)C3)cc2)C[C@@H]1O: 51 to 350 nM
- CCCCCCCCCC(=O)N[C@@H](CNCc1ccc(C(=O)N2C[C@@H](C(=O)N[C@H]3C[C@@H]3c3ccccc3)[C@H](C(=O)N[C@H]3C[C@@H]3c3ccccc3)C2)cc1)C(=O)NCCCCCC: 351 to 1000 nM
- O=C(N[C@@H](CNC(=O)c1ccc(C(=O)N2C[C@@H](C(=O)N[C@H]3C[C@@H]3c3ccccc3)[C@H](C(=O)N[C@H]3C[C@@H]3c3ccccc3)C2)cc1)C(=O)N[C@H]1C[C@@H]1c1ccccc1)N[C@H]1C[C@@H]1c1ccccc1: > 1000 nM
- CCCCCCCCCCCCCCNC(=O)[C@@H]1CN(C(=O)c2cccc(C(=O)N3C[C@@H](C(=O)N[C@H]4C[C@@H]4c4ccccc4)[C@H](C(=O)N[C@H]4C[C@@H]4c4ccccc4)C3)c2)CCN1C(C)=O: > 1000 nM

* * *

- measured-on: TLR2 (Homo sapiens, UniProt O60603)
- experimental-protocol: TLR2 agonist screening assay, HEK-Blue TLR2 reporter cell line (NF-kB-driven SEAP, absorbance at 600 nm)
- Assay type: cell-based
- Parameters: host or cells: HEK-293 (HEK-Blue TLR2 reporter cell line)
- conditions-used: HEK-Blue TLR2 reporter cells, agonist mode; average of all runs (Table 4)
pEC50: −log10 of the molar value.
value-kind: pEC50

- CCCCCCCCCCCCCCN1CC(=O)N[C@@H](CNC(=O)c2ccc(C(=O)N3C[C@@H](C(=O)N[C@H]4C[C@@H]4c4ccccc4)[C@H](C(=O)N[C@H]4C[C@@H]4c4ccccc4)C3)cc2)C1=O: < 6.00
- CCCCCCCC[C@H]1CN(C(=O)c2ccc(C(=O)N3C[C@@H](C(=O)N[C@H]4C[C@@H]4c4ccccc4)[C@H](C(=O)N[C@H]4C[C@@H]4c4ccccc4)C3)cc2)C[C@H]1C(=O)NCCCCCC (relative stereo): < 6.00
- CCCCCCCC[C@@H]1CN(C(=O)c2ccc(C(=O)N3C[C@@H](C(=O)N[C@H]4C[C@@H]4c4ccccc4)[C@H](C(=O)N[C@H]4C[C@@H]4c4ccccc4)C3)cc2)C[C@H]1C(=O)NCCCCCC (racemic) [Compound 085]: 7.30 to 10.00
- CCCCCCCCCCCCOC(=O)N[C@H]1CN(C(=O)c2ccc(C(=O)N3C[C@@H](C(=O)N[C@H]4C[C@@H]4c4ccccc4)[C@H](C(=O)N[C@H]4C[C@@H]4c4ccccc4)C3)cc2)C[C@@H]1OC: 7.30 to 10.00
- CCCCCCNC(=O)[C@H](CNC(=O)c1ccc(C(=O)N2C[C@@H](C(=O)N[C@H]3C[C@@H]3c3ccccc3)[C@H](C(=O)N[C@H]3C[C@@H]3c3ccccc3)C2)cc1)NC(=O)NCc1ccc(F)cc1: 7.30 to 10.00
- O=C(N[C@H]1C[C@@H]1c1ccccc1)[C@@H]1CN(C(=O)c2ccc(C(=O)N3CC[C@@H](n4cnc(-c5ccc(C(F)(F)F)cc5)c4)C3)cc2)C[C@H]1C(=O)N[C@H]1C[C@@H]1c1ccccc1: < 6.00
- CCCCCCN1C(=O)[C@H](CNC(=O)c2ccc(C(=O)N3C[C@@H](C(=O)N[C@H]4C[C@@H]4c4ccccc4)[C@H](C(=O)N[C@H]4C[C@@H]4c4ccccc4)C3)cc2)NC(=O)[C@@H]1CCCCC: < 6.00
- CCCCCCCCCCCCCCNC(=O)[C@H]1CN(C(=O)c2cccc(C(=O)N3C[C@@H](C(=O)N[C@H]4C[C@@H]4c4ccccc4)[C@H](C(=O)N[C@H]4C[C@@H]4c4ccccc4)C3)c2)CCN1C(C)=O: < 6.00
- CCCCCCCCCCCCCCNC(=O)[C@@H]1CN(S(=O)(=O)c2ccc(C(=O)N3C[C@@H](C(=O)N[C@H]4C[C@@H]4c4ccccc4)[C@H](C(=O)N[C@H]4C[C@@H]4c4ccccc4)C3)cc2)CCN1C(C)=O: < 6.00
- CCCCCCCCCCCCCCC(=O)N[C@@H]1CN(C(=O)c2ccc(C(=O)N3C[C@@H](C(=O)N[C@H]4C[C@@H]4c4ccccc4)[C@H](C(=O)N[C@H]4C[C@@H]4c4ccccc4)C3)cc2)C[C@@H]1OC: 7.30 to 10.00

Source listed as patent US11951094B2.
